target: α4β1 (Homo sapiens, UniProt P05556+P13612); assay: α4β1 integrin inhibition, IC50; assay type: binding; settings: read-out: α4β1 IC50
Sequence (P13612 34-1032): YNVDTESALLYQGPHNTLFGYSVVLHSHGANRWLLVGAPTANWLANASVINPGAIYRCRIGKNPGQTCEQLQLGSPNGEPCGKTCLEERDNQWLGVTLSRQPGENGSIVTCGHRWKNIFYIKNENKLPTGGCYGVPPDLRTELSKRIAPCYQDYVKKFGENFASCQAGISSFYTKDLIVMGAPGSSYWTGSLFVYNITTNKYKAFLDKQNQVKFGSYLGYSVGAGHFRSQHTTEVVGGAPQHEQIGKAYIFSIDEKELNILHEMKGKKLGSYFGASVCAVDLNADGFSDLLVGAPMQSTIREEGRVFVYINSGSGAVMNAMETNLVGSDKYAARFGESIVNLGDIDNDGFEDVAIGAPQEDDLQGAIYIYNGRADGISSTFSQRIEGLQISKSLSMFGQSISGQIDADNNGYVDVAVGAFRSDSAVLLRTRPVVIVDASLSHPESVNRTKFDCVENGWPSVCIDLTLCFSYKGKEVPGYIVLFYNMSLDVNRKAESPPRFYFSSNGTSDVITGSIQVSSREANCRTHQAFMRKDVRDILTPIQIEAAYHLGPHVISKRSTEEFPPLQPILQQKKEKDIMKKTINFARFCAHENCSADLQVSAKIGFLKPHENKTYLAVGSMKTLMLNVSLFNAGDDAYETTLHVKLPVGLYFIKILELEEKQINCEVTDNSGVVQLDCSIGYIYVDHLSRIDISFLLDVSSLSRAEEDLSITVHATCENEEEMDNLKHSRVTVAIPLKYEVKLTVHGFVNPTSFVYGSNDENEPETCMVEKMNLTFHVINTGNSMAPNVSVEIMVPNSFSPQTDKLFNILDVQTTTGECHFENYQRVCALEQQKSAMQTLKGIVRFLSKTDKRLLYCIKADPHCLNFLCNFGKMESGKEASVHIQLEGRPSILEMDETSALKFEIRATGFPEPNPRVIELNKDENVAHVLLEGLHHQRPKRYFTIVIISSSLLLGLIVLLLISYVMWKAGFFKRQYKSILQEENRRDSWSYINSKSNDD
Sequence (P05556 21-798): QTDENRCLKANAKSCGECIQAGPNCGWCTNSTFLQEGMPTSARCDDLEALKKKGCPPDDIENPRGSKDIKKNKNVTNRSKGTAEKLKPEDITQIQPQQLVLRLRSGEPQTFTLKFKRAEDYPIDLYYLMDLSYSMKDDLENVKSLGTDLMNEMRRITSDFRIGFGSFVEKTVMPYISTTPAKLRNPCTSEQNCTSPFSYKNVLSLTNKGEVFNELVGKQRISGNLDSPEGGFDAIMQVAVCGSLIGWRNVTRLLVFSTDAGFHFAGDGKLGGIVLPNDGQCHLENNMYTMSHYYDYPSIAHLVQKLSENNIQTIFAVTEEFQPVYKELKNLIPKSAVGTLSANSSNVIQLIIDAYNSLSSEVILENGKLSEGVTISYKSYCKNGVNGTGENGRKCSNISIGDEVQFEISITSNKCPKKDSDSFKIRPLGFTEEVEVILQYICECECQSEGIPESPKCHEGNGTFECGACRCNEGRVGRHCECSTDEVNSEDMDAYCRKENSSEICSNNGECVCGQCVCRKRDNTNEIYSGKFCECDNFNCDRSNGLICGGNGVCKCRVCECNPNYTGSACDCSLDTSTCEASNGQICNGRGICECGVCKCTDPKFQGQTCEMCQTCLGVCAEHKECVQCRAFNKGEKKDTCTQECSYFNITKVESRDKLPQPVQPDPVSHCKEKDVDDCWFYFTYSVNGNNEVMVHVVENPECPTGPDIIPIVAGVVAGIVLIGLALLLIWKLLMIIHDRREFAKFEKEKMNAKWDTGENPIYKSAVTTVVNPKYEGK
REPORTED_PROPERTY: IC50

Request: Quick one: IC50 for COc1ccc(-c2cccc([C@H](CC(=O)O)NC(=O)Nc3c(O)c(C)cn(C)c3=O)c2)cn1 ?
Response: < 20 nM

Request: What value of IC50 has been recorded for this entry: Cc1ccccc1-c1cc([C@H](CC(=O)O)NC(=O)Nc2c(O)cc(C)n(C)c2=O)ccc1F
Response: < 20 nM

Request: IC50 for Cc1cccc(C)c1-c1ccc([C@H](CC(=O)O)NC(=O)Nc2c(O)ccn(C)c2=O)s1 ?
Response: < 20 nM

Request: What measured IC50 goes with Cc1ccc(-c2cccc([C@H](CC(=O)O)NC(=O)Nc3c(O)c(C)cn(C)c3=O)c2)cc1C ?
Response: < 200 nM

Request: Fill blank: measured IC50 of the compound COc1cccc(-c2cccc([C@H](CC(=O)O)NC(=O)Nc3c(O)c(C)cn(C)c3=O)c2)c1C is ____.
Response: < 200 nM

Request: // query IC50 value for entry Cc1cccc(C)c1-c1cccc([C@H](CC(=O)O)NC(=O)Nc2c(O)ccn(C)c2=O)c1
Response: < 20 nM

Request: If you can, please state the reported IC50 value of Cc1cc(-c2ccc(F)cc2F)cc([C@H](CC(=O)O)NC(=O)Nc2c(O)ccn(C)c2=O)c1 .
Response: < 20 nM

Request: Fill blank: measured IC50 of the compound Cn1ccc(O)c(NC(=O)N[C@@H](CC(=O)O)c2ccc(-c3cccc(OC(F)(F)F)c3)s2)c1=O is ____.
Response: < 20 nM

Request: // IC50 lookup, key: Cn1ccc(O)c(NC(=O)N[C@@H](CC(=O)O)c2cc(F)cc(-c3cccc(OC(F)(F)F)c3)c2)c1=O
Response: < 20 nM

Request: Could you share which IC50 value was measured for Cc1cc(-c2c(C)cccc2C)cc([C@H](CC(=O)O)NC(=O)Nc2c(O)cc(C)n(C)c2=O)c1 ?
Response: < 20 nM

Request: What value of measured IC50 is listed for COc1cccc(-c2cc([C@H](CC(=O)O)NC(=O)Nc3c(O)cc(C)n(C)c3=O)ccc2OC(F)(F)F)c1 ?
Response: < 20 nM

Request: What value of IC50 has been reported for the following compound? Cc1cn(C)c(=O)c(NC(=O)N[C@@H](CC(=O)O)c2cccc(-c3ccc(F)cc3)c2)c1O
Response: < 20 nM

Request: Form field: reported IC50 of Cc1cc(O)c(NC(=O)N[C@@H](CC(=O)O)c2cccc(-c3ccc(F)cc3F)c2)c(=O)[nH]1
Response: > 200 nM

Request: Reported IC50, compound COc1cccc(-c2ccc(F)c([C@H](CC(=O)O)NC(=O)Nc3c(O)ccn(C)c3=O)c2)c1 : ____
Response: < 20 nM

Request: Query: IC50; subject: Cc1cn(C)c(=O)c(NC(=O)NC(CC(=O)O)c2cccc(-c3ccc(Cl)c(Cl)c3)c2)c1O (stereo not shown)
Response: < 200 nM

Request: What does the record list as IC50 for Cc1cccc(C)c1-c1cccc([C@H](CC(=O)O)NC(=O)Nc2c(O)cc(C)n(C)c2=O)c1 ?
Response: < 20 nM

====

target: α4β1 (Homo sapiens, UniProt P05556+P13612); assay: α4β1 integrin inhibition, IC50; type: binding; conditions: read-out: α4β1 IC50
Provide the recorded IC50 for the entries that follow.

Request: Requested read-out: IC50. Entry: Cc1cc(O)c(NC(=O)N[C@@H](CC(=O)O)c2cccc(-c3ccccc3)c2F)c(=O)n1C
Response: < 20 nM

Request: Which IC50 reading was recorded for the compound COc1ccc(-c2cccc([C@H](CC(=O)O)NC(=O)Nc3c(O)ccn(C)c3=O)c2)cn1 ?
Response: < 20 nM

Request: Sample Cn1ccc(O)c(NC(=O)N[C@@H](CC(=O)O)c2cccc(-n3ccnc3)c2)c1=O — what was its IC50?
Response: < 20 nM

Request: Need IC50 of Cc1cscc1-c1cccc([C@H](CC(=O)O)NC(=O)Nc2c(O)ccn(C)c2=O)c1 , thanks.
Response: < 20 nM

====

For each record, write down the corresponding IC50.
target: α4β1 (Homo sapiens, UniProt P05556+P13612); test: α4β1 integrin inhibition, IC50; assay type: binding; details: read-out: α4β1 IC50

Request: Fill in: IC50 of CCn1cc(C)c(O)c(NC(=O)NC(CC(=O)O)c2cccc(-n3cccc(-c4ccccc4)c3=O)c2)c1=O (stereo not shown) [1-439] is ___
Response: > 0.2 µM

Request: I'd like to know its IC50. The molecule in question is Cc1ccc([C@H](CC(=O)O)NC(=O)Nc2c(O)ccn(C)c2=O)cc1-c1cccc(Cl)c1 [1-555]
Response: < 0.02 µM

Request: Look at this molecule and give its reported IC50. Cn1ncc(O)c(NC(=O)N[C@@H](CC(=O)O)c2cccc(-c3ccc(F)cc3F)c2)c1=O [1-549]
Response: < 0.02 µM

Request: Need IC50, item Cn1ccc(O)c(NC(=O)N[C@@H](CC(=O)O)c2cc(-c3ccc(F)cc3F)ccc2F)c1=O [1-591]
Response: < 0.02 µM

Request: Value lookup for IC50; key = CCc1ccccc1-c1cccc([C@H](CC(=O)O)NC(=O)Nc2c(O)c(C)cn(C)c2=O)c1 [1-492]
Response: < 0.02 µM

Request: Quick check: IC50 of Cc1cn(C)c(=O)c(NC(=O)NC(CC(=O)O)c2cccc(-n3cccc3)c2)c1O (stereo not shown) [1-445] ?
Response: < 0.2 µM

Request: Consider the molecule COc1cccc(-c2cc(OC)cc([C@H](CC(=O)O)NC(=O)Nc3c(O)ccn(C)c3=O)c2)c1 [1-564] and give its measured IC50.
Response: < 0.02 µM

Request: Look up IC50 for this molecule: Cc1cc(O)c(NC(=O)N[C@@H](CC(=O)O)c2cc(-c3ccc(F)cc3F)ccc2F)c(=O)n1C [1-592]
Response: < 0.02 µM

Request: For the molecule Cc1cc(-c2ccc(F)cc2F)cc([C@H](CC(=O)O)NC(=O)Nc2c(O)cc(C)n(C)c2=O)c1 [1-575] , what IC50 is on record?
Response: < 0.02 µM

Request: Recorded IC50 of COc1cccc(-c2cc(F)cc([C@H](CC(=O)O)NC(=O)Nc3c(O)cc(C)n(C)c3=O)c2)c1 [1-605] , please.
Response: < 0.02 µM

Request: Endpoint output: IC50 of COc1cc(-c2c(C)cccc2C)cc([C@H](CC(=O)O)NC(=O)Nc2c(O)cc(C)n(C)c2=O)c1 [1-580] . Value?
Response: < 0.02 µM

Request: Fill in: IC50 of Cc1cn(C)c(=O)c(NC(=O)N[C@@H](CC(=O)O)c2cccc(-c3ccccc3F)c2)c1O [1-441] is ___
Response: < 0.02 µM

Request: Look up IC50: COc1ccc(C)c(-c2cccc([C@H](CC(=O)O)NC(=O)Nc3c(O)c(C)cn(C)c3=O)c2)c1 [1-490]
Response: < 0.2 µM

Request: I have this molecule here, CCn1ccc2ccc(-c3cccc([C@H](CC(=O)O)NC(=O)Nc4c(O)ccn(C)c4=O)c3)cc21 [1-521] , and I need its recorded IC50.
Response: < 0.02 µM

Request: Sample COc1ccc(-c2cccc([C@H](CC(=O)O)NC(=O)Nc3c(O)c(C)cn(C)c3=O)c2)cc1 [1-645] — what was its IC50?
Response: < 0.2 µM

Request: Would you kindly share the measured IC50 for Cc1cc(-c2c(C)cccc2C)cc([C@H](CC(=O)O)NC(=O)Nc2c(O)ccn(C)c2=O)c1 [1-573] ?
Response: < 0.02 µM

====

biological target: α4β1 (Homo sapiens, UniProt P05556+P13612); assay: α4β1 integrin inhibition, IC50; assay type: binding; conditions: read-out: α4β1 IC50
pIC50: −log10 of the molar value.
REPORTED_PROPERTY: pIC50

Request: Please report the recorded pIC50 for Cc1cn(C)c(=O)c(NC(=O)NC(CC(=O)O)c2ccc(=O)n(-c3ccccc3)c2)c1O (stereo not shown) .
Response: > 6.70

Request: Item under review: Cc1cn(C)c(=O)c(NC(=O)NC(CC(=O)O)c2cccc(-c3cccc(Cl)c3)c2)c1O (stereo not shown) . Reported pIC50?
Response: > 6.70

Request: # query: pIC50 of entry Cc1noc(C)c1-c1cccc([C@H](CC(=O)O)NC(=O)Nc2c(O)ccn(C)c2=O)c1
Response: > 7.70

Request: Query: pIC50; subject: Cc1cn(C)c(=O)c(NC(=O)N[C@@H](CC(=O)O)c2ccc(F)c(-c3ccccc3)c2)c1O
Response: > 7.70
